Ref: PubChem BioAssay

Task for the reader: assign each of the following molecules its reported composite z-score.
Tested on: Inhibin beta A chain (activin A)
Assay: INHBA (activin A) binders on microarrays, primary screen, biochemical, small-molecule microarray, 635 nm fluorescence scan (AID 1107);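 also: mouse activin A protein probed at 4.33 µg/mL on printed slides; score merges bound-protein fluorescence near 667 nm with spot signal-to-noise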
Settings: small-molecule microarray binding, higher = more signal
Answers are plain numbers.

* C=C[C@@H](C)[C@@H](OC(=O)Nc1ccc(SC)cc1)c1ccc(OCCO)cc1 | 0.0303
* COc1ccc([Si](C)(C)[C@H]2[C@H](CCO)O[C@@]3(C(=O)N(Cc4ccc(N5C(=O)c6ccccc6Oc6ccccc65)cc4)c4ccccc43)[C@@H]2C)cc1 | -0.917
* CC(C)=CCCC(C)=CC(O)C1C=CC2C(=O)N(c3ccccc3)C(=O)C2N1Nc1ccccc1F (stereo not given) | 0.418
* O=C1C[C@@](C(=O)NCc2ccccc2)(c2ccc([N+](=O)[O-])cc2)[C@@H](c2ccc(CO)cc2I)N1CC12CC3CC(CC(C3)C1)C2 | -0.0204

Hey, can you go through the list below and give me composite z-score for every item?
1. [N-]=[N+]=NC[C@H](Cc1ccccc1)NC(=O)c1ccccc1
2. O=C1O[C@H](c2ccccc2)[C@H](c2ccccc2)N2[C@H]1[C@@H](C(=O)N1CCCCCCC1)[C@]1(C(=O)Nc3ccc(C#CC4(O)CCCCCC4)cc31)[C@H]2c1ccccc1OCCO

Response:
1. 0.382
2. 1.69

Hey, can you go through the list below and give me composite z-score for every item?
1. O=C(CS)NCCCCCCNC(=O)[C@@H]1C[C@@H]2C(=O)NCC(=O)N2[C@@H]1c1ccc(O)cc1
2. CC(C)CCC[C@@H](C)[C@H]1CC[C@@]2(C)C3=C(CC[C@]12C)[C@@]1(C)CC[C@H](OC(=O)c2ccccc2)C(C)(C)C1CC3 (stereo not given in full)
3. CN1C(=O)C2C=CC(C(O)c3ccc(F)cc3)N(NC(=O)OC(C)(C)C)C2C1=O (stereo not given)
4. C=CC[C@H](OC(=O)Nc1ccc(SC)cc1)c1ccc(OCCO)cc1
5. CCc1cccc(NC(=O)O[C@H]2[C@H](OC(=O)Nc3ccccc3)[C@H](OC(=O)Nc3ccccc3)[C@@H](OC)O[C@@H]2CO)c1

Response:
1. -0.716
2. -0.0754
3. 0.471
4. 0.138
5. 0.444
